Source listed as patent US7786141B2.

system_tested: M4 muscarinic receptor (Homo sapiens, UniProt P08173)
Construct: expressed in transfected cells; host or cells: CHO (M4-CHO)
Sequence (P08173 whole entry): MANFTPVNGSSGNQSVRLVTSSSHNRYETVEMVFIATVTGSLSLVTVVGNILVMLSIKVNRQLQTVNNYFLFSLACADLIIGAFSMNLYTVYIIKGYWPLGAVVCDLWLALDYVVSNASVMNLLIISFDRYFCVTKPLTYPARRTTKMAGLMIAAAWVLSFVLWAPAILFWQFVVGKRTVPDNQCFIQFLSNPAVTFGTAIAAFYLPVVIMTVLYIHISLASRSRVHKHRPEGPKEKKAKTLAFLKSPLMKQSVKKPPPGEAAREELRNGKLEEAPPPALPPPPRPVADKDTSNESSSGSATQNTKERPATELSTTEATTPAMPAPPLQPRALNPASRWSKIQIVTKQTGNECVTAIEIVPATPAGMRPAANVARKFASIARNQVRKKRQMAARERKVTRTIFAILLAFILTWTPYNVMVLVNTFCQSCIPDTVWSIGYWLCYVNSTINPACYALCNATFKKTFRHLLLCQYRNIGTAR
procedure_details: Functional mobilization of intracellular calcium (FLIPR) in M4-CHO cells
Type: cell-based
condition_summary: Table 4; 100% efficacy is the maximum response obtained with the Carbachol control
readout_kind: Emax

Please review the following examples before continuing.
CC(=O)N[C@H]1CC2(CCN(CC(=O)N3CCCC3)CC2)c2ccccc21 = < 25%
O=C1CCCN1[C@H]1CCC2(CCN(C[C@@H]3C[C@H]4C=CC3C4)CC2)c2ccccc21 = 25 to 100%
C#CCOC(=O)N1C2CCC1CC(N1CCC3(CC1)CN(C(C)=O)c1ccccc13)C2 (stereo not shown) = 25 to 100%
CC#CC(C)OC(=O)N1CC[C@H](CN2CCC3(CC2)CN(C(=O)N(C)C)c2ccc(F)cc23)C1 (stereo partly shown) = < 25%
CN(C)C(=O)N1CC2(CCN(C3CCN(C(=O)c4ccc(F)cc4)CC3)CC2)c2cc(F)ccc21 = < 25%

Ask: Would you mind telling me what Emax value was observed for CCCC#CCOC(=O)N1CC[C@@H](CN2CCC3(CC2)CN(C(=O)N(C)C)c2ccc(F)cc23)C1 ?
Result: 25 to 100%

Ask: Same thing, different molecule: CCOC(=O)N1C2CCC1CC(N1CCCC3(CC1)CN(C(C)=O)c1ccc(F)cc13)C2 (stereo not shown)
Result: 25 to 100%

----------
system_tested: M4 muscarinic receptor (Homo sapiens, UniProt P08173)
Construct: expressed in transfected cells; host or cells: CHO (M4-CHO)
procedure_details: Functional mobilization of intracellular calcium (FLIPR) in M4-CHO cells
Format: cell-based
condition_summary: Table 4; 100% efficacy is the maximum response obtained with the Carbachol control
Parameter Emax: see the listing below.

Please review the following examples before continuing.
CC(=O)N[C@H]1CC2(CCN(CC3CC4C=CC3C4)C2)c2ccc(F)cc21 (some centres unmarked) = 25 to 100%
CC(=O)N1CC2(CCN(CC3CC3)CC2)c2cc(F)ccc21 = < 25%

Ask: Report Emax for CC(=O)N1CC2(CCN(CC3CCOCC3)CC2)c2cc(F)ccc21 tested on M4 muscarinic receptor (Homo sapiens, UniProt P08173).
Result: < 25%

Ask: Same thing, different compound: O=C(N[C@H]1CC2(CCN(C3CC4CC[C@@H]3C4)CC2)c2ccccc21)N1CCOCC1 (some centres unmarked)
Result: 25 to 100%

----------
system_tested: M1 muscarinic receptor (Homo sapiens, UniProt P11229)
Construct: expressed in transfected cells; host or cells: CHO (M1-CHO)
Sequence (P11229 whole entry): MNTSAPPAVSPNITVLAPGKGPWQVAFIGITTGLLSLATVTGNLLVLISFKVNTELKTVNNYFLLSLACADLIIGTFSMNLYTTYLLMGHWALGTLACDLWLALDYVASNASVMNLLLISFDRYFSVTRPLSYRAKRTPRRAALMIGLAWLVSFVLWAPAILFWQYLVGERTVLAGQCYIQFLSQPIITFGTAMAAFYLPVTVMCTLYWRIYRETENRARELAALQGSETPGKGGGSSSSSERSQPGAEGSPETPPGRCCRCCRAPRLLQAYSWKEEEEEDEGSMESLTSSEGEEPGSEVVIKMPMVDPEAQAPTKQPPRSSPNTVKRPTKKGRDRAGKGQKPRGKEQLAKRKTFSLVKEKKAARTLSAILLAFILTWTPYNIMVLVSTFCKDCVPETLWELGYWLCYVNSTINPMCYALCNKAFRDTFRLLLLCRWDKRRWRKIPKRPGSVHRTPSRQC
procedure_details: Functional mobilization of intracellular calcium (FLIPR) in M1-CHO cells
Format: cell-based
condition_summary: M1-CHO cells, calcium mobilization (FLIPR); read-out: M1 Efficacy
Parameter Emax: see the listing below.

COCCOC(=O)N1CCC(CN2CCC3(CC2)C[C@H](NC(C)=O)c2ccccc23)CC1 = < 65%
CS(=O)(=O)N1CC2(CCN(C3CC4CCC(C3)N4C(=O)O[C@H]3CCOC3)CC2)c2cc(F)ccc21 (stereo partly shown) = 65 to 85%
COCCOC(=O)N1C2CCC1CC(N1CCC3(CC1)COc1ccc(F)cc13)C2 (stereo not shown) = 65 to 85%

Ask: Would you mind telling me what Emax value was observed for CCCOC(=O)N1C2CCC1CC(N1CCC3(CC1)CN(C(=O)OCCOC)c1ccc(F)cc13)C2 (stereo not shown) ?
Result: < 65%

----------
system_tested: M1 muscarinic receptor (Homo sapiens)
Construct: expressed in transfected cells; host or cells: CHO (M1-CHO)
procedure_details: Functional mobilization of intracellular calcium (FLIPR) in M1-CHO cells
Format: cell-based
condition_summary: Table 4; 100% efficacy is the maximum response obtained with the Carbachol control
readout_kind: Emax

CC(=O)CN1CC2(CCN(C3CCCCCC3)CC2)c2cc(F)ccc21 [compound 1009] = 25 to 100%
Cc1ccc2c(c1)C(=O)CC21CCN(C2CCCCCC2)CC1 [compound 863] = 25 to 100%
CC#CCOC(=O)N1CC[C@H](CN2CCC3(CC2)CN(C(C)=O)c2cccc(C)c23)C1 [compound 445] = 25 to 100%
COc1ccc(F)cc1N1CCC(N2CCC3(CC2)CN(C(=O)N(C)C)c2ccc(F)cc23)CC1 [compound 814] = 25 to 100%
CCOC(=O)N1CCC(N2CCC3(CC2)CN(C(=O)[C@H](O)CC)c2ccc(F)cc23)CC1 [compound 730] = 25 to 100%

Ask: Would you mind telling me what Emax value was observed for CC(=O)N[C@H]1CC2(CCN(CCC3=C(C)CCCC3(C)C)CC2)c2ccccc21 [compound 784] ?
Result: < 25%

Ask: Same thing, different molecule: C#CCOC(=O)N1CC[C@H](CN2CCC3(CC2)CN(C(C)=O)c2cccc(C)c23)C1 [compound 573]
Result: 25 to 100%

Ask: Same thing, different molecule: C#CCCC(=O)N1CCC(N2CCC3(CC2)CN(C(=O)N(C)C)c2ccc(F)cc23)CC1 [compound 553]
Result: 25 to 100%

Ask: Same thing, different molecule: O=C(O)C1CC2(CCN(C3CCCC3)CC2)c2ccccc21 (stereo not shown) [compound 542]
Result: < 25%

Ask: Same thing, different molecule: CN(C)C(=O)N1CC2(CCN(C3CCN(C(=O)c4ccncc4)CC3)CC2)c2cc(F)ccc21 [compound 791]
Result: 25 to 100%

Ask: Same thing, different molecule: O=C1CC2(CCN([C@@H]3C[C@@H]4CC[C@@H]3C4)CC2)c2cc(Cl)ccc21 [compound 787]
Result: 25 to 100%

Ask: Same thing, different molecule: C#CCCOC(=O)N1CC[C@@H](CN2CCC3(CC2)CN(C(C)=O)c2ccccc23)C1 [compound 1013]
Result: < 25%

Ask: Same thing, different molecule: CCOC(=O)N1CCC(N2CCC3(CC[C@H](NC(=O)N(C)C)c4ccccc43)CC2)CC1 [compound 961]
Result: 25 to 100%

Ask: Same thing, different molecule: CCNC(=O)N1CC2(CCN(C3CCN(C(=O)OCC)CC3)CC2)c2ccccc21 [compound 944]
Result: 25 to 100%

Ask: Same thing, different molecule: CCCN1CC2(CCN(C[C@H]3C[C@H]4C=CC3C4)CC2)c2cc(F)ccc21 [compound 984]
Result: 25 to 100%

Ask: Same thing, different molecule: CCOC(=O)N1C2CCC1CC(N1CCC3(CC[C@H](NC(=O)C4CC4)c4ccccc43)CC1)C2 (stereo partly shown) [compound 664]
Result: 25 to 100%

----------
Parameter Emax: see the listing below.
system_tested: M4 muscarinic receptor (Homo sapiens)
Construct: expressed in transfected cells; host or cells: CHO (M4-CHO)
procedure_details: Functional mobilization of intracellular calcium (FLIPR) in M4-CHO cells
Type: cell-based
condition_summary: Table 4; 100% efficacy is the maximum response obtained with the Carbachol control

Please review the following examples before continuing.
CC(=O)N1CC2(CCN(C[C@H]3CCN(C(=O)OC(C)C)C3)CC2)c2ccccc21 = < 25%
CCOC(=O)N1CCC(N2CCC3(CC2)CN(C(C)=O)c2c(C)cccc23)CC1 = 25 to 100%
CC(=O)NC1CCC2(CCN(CCC3CCN(C(=O)C(C)(C)C)CC3)CC2)c2ccccc21 (stereo not shown) = < 25%
O=C(N[C@H]1CC2(CCN(CC3CCCCC3)CC2)c2ccccc21)N1CCCC1 = < 25%

Ask: Would you mind telling me what Emax value was observed for CC(=O)N[C@H]1CC2(CCN(CC(=O)N(C)C3CCN(C)CC3)CC2)c2ccccc21 ?
Result: < 25%

Ask: Same thing, different compound: CN(C)C(=O)N[C@H]1CC2(CCN([C@@H]3CC4CC[C@@H]3C4)CC2)c2ccccc21
Result: 25 to 100%

Ask: Same thing, different compound: COc1cc2c(cc1OC)C1(CCN(CC3CCCCC3)CC1)C[C@@H]2N(C(C)=O)[C@@H](C)c1ccccc1
Result: < 25%

----------
system_tested: M1 muscarinic receptor (Homo sapiens, UniProt P11229)
Construct: expressed in transfected cells; host or cells: CHO (M1-CHO)
procedure_details: Functional mobilization of intracellular calcium (FLIPR) in M1-CHO cells
Format: cell-based
condition_summary: Table 4; 100% efficacy is the maximum response obtained with the Carbachol control
Description: Functional Mobilization of Intracellular Calcium to Determine Muscarinic Receptor Activity: […] Compounds are prepared at a 2× fold concentration in a 96-well plate (round bottom, Costar Corning cat# 3656), by reconstituting the pre-spotted compounds in bath 1 containing 1 mM probenecid. […] In both assay modes, the fluorescence is recorded for 60 sec (excitation wavelength is […] and emission wavelength 540 nm) using the FLIPR 3 instrument. […]
readout_kind: Emax

CN(C)C(=O)N1CC2(CCN(C3CCCN(C(=O)OCCF)CC3)CC2)c2cc(F)ccc21 (stereo not shown) = 25 to 100%

Ask: Would you mind telling me what Emax value was observed for CC(=O)NC1CCC2(CCN(CCC3CCCN(C(C)=O)C3)CC2)c2ccccc21 (stereo not shown) ?
Result: 25 to 100%

Ask: Same thing, different compound: CCOC(=O)N1CCC(N2CCC3(CC2)CN(C(C)=O)c2ccc(Br)cc23)CC1
Result: 25 to 100%

Ask: Same thing, different compound: CCCOC(=O)N1C2CCC1CC(N1CCC3(CC1)CN(C(C)=O)c1ccccc13)C2 (stereo not shown)
Result: 25 to 100%
